Subject Of Test: Solute carrier family 2, facilitated glucose transporter member 1 (Homo sapiens) (UniProt P11166)
Sequence (P11166 whole entry): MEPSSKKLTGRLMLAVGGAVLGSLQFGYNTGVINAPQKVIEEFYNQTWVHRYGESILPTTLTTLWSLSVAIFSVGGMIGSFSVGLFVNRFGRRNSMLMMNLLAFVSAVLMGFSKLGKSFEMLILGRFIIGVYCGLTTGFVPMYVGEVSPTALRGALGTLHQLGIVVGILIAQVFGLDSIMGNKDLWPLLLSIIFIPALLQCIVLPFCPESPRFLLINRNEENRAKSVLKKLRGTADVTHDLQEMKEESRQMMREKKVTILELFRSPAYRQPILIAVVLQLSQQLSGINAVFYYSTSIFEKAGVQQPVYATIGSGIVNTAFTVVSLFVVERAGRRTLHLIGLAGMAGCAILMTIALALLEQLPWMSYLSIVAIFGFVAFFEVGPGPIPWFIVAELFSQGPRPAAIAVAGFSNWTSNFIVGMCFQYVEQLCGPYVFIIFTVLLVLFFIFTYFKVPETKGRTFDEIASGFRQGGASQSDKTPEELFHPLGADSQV
Assay Overview: ST_JUDE_LEISH: Cytotoxicity at 2uM final concentration against transgenic Leishmania Mexicana promastigotes LmGLUT1 that are glucose transport deficient and complemented with the human glucose transporter GLUT1. Activity is measured by DNA content using SYBR green in vitro
Format: functional
Assay Endpoint: inhibition (%)
Give bare numbers, in %.

Recorded results for 10 compounds are shown here.
| Compound | Recorded Number |
| --- | --- |
| CC(C)CCNC(=O)C1Cc2c([nH]c3ccc(Br)cc23)C2(CCN(Cc3ccccc3)CC2)N1 (centres undefined) | 104 |
| O=C(Cn1c(=O)cnc2ccccc21)Nc1cccc(C(=O)Nc2cccc(C(F)(F)F)c2)c1 | 1.09 |
| OC(CNc1ccnc(Nc2ccccc2)n1)c1cccc(C(F)(F)F)c1 (centres undefined) | 4.65 |
| COc1ccc2nccc([C@@H](O)CN3CCC(NCc4cc5c(Cl)cc(Cl)cc5[nH]4)CC3)c2c1 | 6.83 |
| COC(=O)c1cccc(N2CCN(CCCNC(=O)/C(=C/C=C/c3cc4cc(Cl)c(Cl)cc4[nH]3)OC)CC2)c1 | 2.24 |
| Cc1cccc(CNc2nc(C)cc(N[C@@H](Cc3ccccc3)C(=O)NC3CCCC3)n2)c1 | 16.1 |
| CN(C)c1ccc(/N=C2/N/C(=N/c3ccc(N(C)C)cc3)c3ccccc32)cc1 | 4.81 |
| COc1ccc(-c2ccc(CNC(=O)c3cccc(C#N)c3)c(F)c2)cc1CN1CCCN(C)CC1 | 0.77 |
| COC(=O)c1ccc(NC(=O)c2ccc(CCN3CCC(c4nc(COCC(F)(F)F)c(-c5ccc(F)cc5)o4)CC3)cc2)cc1 | 3.21 |
| Cc1cc(CN2CCCN(c3ccc4c(c3)CCN(Cc3ccc(-c5ncc[nH]5)cc3)CC4)CC2)n(C)n1 | -0.3 |

Provide the reported inhibition of each entry below, same order.
1. c1ccc(Oc2ccc(Nc3ccnc4cc(-c5ccc(CN6CCOCC6)o5)ccc34)cc2)nc1
2. Cc1ccc(-c2cc(C(=O)Nc3ccc(S(=O)(=O)N4CC(C)OC(C)C4)cc3)[nH]n2)c(O)c1 (centres undefined)
3. CC(CN1CCN(C)CC1)C(=O)Nc1ccc(-c2ccc(-c3nc4ccccc4[nH]3)cc2)cc1 (centres undefined)
4. Cc1noc(NC(=O)c2sc3ccccc3c2O)c1C
5. Cc1cc(N[C@@H](Cc2ccccc2)C(=O)NC2CCCC2)nc(Nc2ccccc2)n1
6. Cc1cc(NCCCOc2ccc(Cl)cc2)nc(NCc2ccccc2)n1
7. Cc1ccc([S+]([O-])Cc2ccc(Cl)cc2)cc1 (centres undefined)
8. CCN1CCN(c2cc(C)c3cc(NC(=O)c4cccc(Cl)c4)ccc3n2)CC1

1. -1.57
2. 3.32
3. 0.19
4. 1.04
5. 7.17
6. 18.8
7. -0.22
8. 7.2

Supply measured inhibition of CN(C)CCNc1ncnc2c1[nH]c1ccc(Cl)cc12 in your reply.
3.7

----------
Can you tell me inhibition for the items I'm about to list?
Subject Of Test: Hexose transporter 1 (Plasmodium falciparum) (UniProt O97467)
Assay Overview: ST_JUDE_LEISH: Cytotoxicity at 2uM final concentration against transgenic Leishmania Mexicana promastigotes LmPfHT that are glucose transport deficient and complemented with the Plasmodium falciparum hexose transporter. Activity is measured by DNA content using SYBR green in vitro
Format: functional
Answers are plain numbers, in %.

# map each compound to its inhibition
1. Cc1cccc2nc(-c3cccc(-c4ccc(NC(=O)Cc5ccccn5)cc4)c3)[nH]c12
2. Cc1cc(NC(=O)Nc2ccc(N(C)C)cc2)c2cc(Cl)ccc2n1
3. Cc1nc(C)c(-c2ccc(C(=O)c3ccccc3)cc2)c(O)c1Br
4. C[C@@H](N/C(=N\c1ccccc1Cl)Nc1ccc(C#N)cc1O)c1ccc(Br)cc1

1: 2.5; 2: 0.69; 3: 5.49; 4: 5.06

Please state inhibition for every compound in the list that follows.
1. C=CCNc1cc(-c2ccccn2)nc(-c2ccccn2)n1
2. CC(NCC(O)Cn1c2ccccc2c2ccccc21)c1ccccc1 (stereo unspecified)
3. Cc1nc(N)nc(N)c1C#CC1CCCC1
4. Cc1ccc(NC(=O)NC2CCN(c3ccnc4cc(Cl)ccc34)CC2)cc1

1. 9.08
2. 1.68
3. 6.82
4. 7.47

Dear colleague, could you please provide inhibition for the compounds listed below?
1. CC(C)(CNCc1cccc(Oc2ccccc2)c1)c1nc(-c2ccnc(N)n2)c(-c2ccc(Cl)c(O)c2)[nH]1
2. Nc1nc(Nc2cccc(O)c2)nc2ccccc12
3. FC(F)(F)c1ccc2[nH]c(-c3cccc(-c4cccc(CNCCc5ccncc5)c4)c3)nc2c1
4. Fc1ccc(OC2CN(c3nccc(NCc4ccccc4Cl)n3)C2)cc1
5. COc1ccc2nccc([C@@H](O)CN3CCC(NCc4cc5oc(=O)n(C)c5cc4F)CC3)c2c1
6. O=C1CCCN1CCCNCc1cccc(-c2ccc(-c3nc4cc(C(F)(F)F)ccc4[nH]3)cc2)c1

[-0.2, 9.29, 4.69, 2.84, 0.07, 13]

State recorded inhibition for all listed compounds.
1. CCCCNC(=O)[C@H](CC1CCCCC1)NC(=O)c1ccc(O)c(-c2ccc(Cl)c(Cl)c2)c1
2. CC(C)(C)c1nn(-c2ccc(Cl)cc2)c2[nH]c(=O)c(CNCc3cccs3)cc12
3. CC(C)c1sc(N2CCN(C)CC2)nc1C(=O)NCCc1cccc(Cl)c1
4. CCCC(=O)Nc1ccc(Cl)c(NC(=O)COc2cc(C)ccc2C(C)C)c1
5. C[C@@H](NC(=O)NC(CCN1CCC2(CC1)CN(S(C)(=O)=O)c1ccccc12)c1ccc(Cl)c(Cl)c1)c1ccccc1 (stereo partly specified)
6. CCOc1ccccc1NC(=O)Nc1ccc2c(c1)CCN(C1CCC1)CC2

[-1.98, 3.24, 3.42, 8.41, 4.43, 6.1]
